// provenance: patent US20240270846A1

Target: T1, human CD137 (human, UniProt Q07011 24-186)
T1 construct: Soluble analyte in the Biacore assay; also called 4-1BB; hCD137
T1 sequence (Q07011 24-186 limits assumed): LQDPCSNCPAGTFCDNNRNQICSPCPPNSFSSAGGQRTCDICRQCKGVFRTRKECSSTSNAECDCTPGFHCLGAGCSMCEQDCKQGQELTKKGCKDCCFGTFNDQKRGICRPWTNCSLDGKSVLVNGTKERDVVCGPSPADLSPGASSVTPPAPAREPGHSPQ
Assay: SPR Biacore T200, IgG captured on protein A, antigen as analyte, 25 C;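 further: antigens flowed over a CM3 chip for 120 s association, KD derived from ka and kd, running buffer (ACES, NaCl, Tween20, pH 7.4) served as blank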
Metric: kon (M⁻¹ s⁻¹)
One number for each entry, in M⁻¹ s⁻¹.

Observe how each entry below is paired with its result.
dBBDu_193 / dBBDu.L132 (antibody, human IgG1, V domains shown, Tested as IgG (human IgG1 constant region, kappa light chain); also called dBBDu193/L132; dBBDu_193/L132) VH: QVQLVESGGGLVQPGRSLRLSCAASGFTFSNAWMHWVRQAPGKGLEWVAQIKDRSNQYATYYAPSVKGRFTISRDDSKNSIYLQMNSLKTEDTAVYYCHYVHYSAASTLLPSFGVDAWGQGTTVTVSS VL: DIVMTQSPLSLPVTPGEPASISCQTSEELVHINRFIFLHWYQQKPGQAPRLLIYKVSNRFSGVPDRFSGSGSGTDFTLKISRVEAEDVGVYYCAQGTSVPFTFGQGTKLEIK :: 471
dBBDu_186 / dBBDu_L098 (antibody, human IgG1, V domains shown, Tested as IgG (human IgG1 constant region, kappa light chain); also called dBBDu186/L098) VH: QVQLVESGGGLVQPGRSLRLSCAASGFTFSNAWMHWVRQAPGKGLEWVAQIKDRSNQYATYYAPSVKGRFTISRDDSKNSIYLQMNSLKTEDTAVYYCHYVHYAQASTVLPAFGVDAWGQGTTVTVSS VL: DIVMTQSPLSLPVTPGEPASISCAASEELVHINRYIFLHWYQQKPGQAPRLLIYKVSNRFIGVPDRFSGSGSGTDFTLKISRVEAEDVGVYYCAQGSQVPFTFGQGTKLEIK :: 231
dBBDu_193 / dBBDu.L127 (antibody, human IgG1, V domains shown, Tested as IgG (human IgG1 constant region, kappa light chain); also called dBBDu193/L127; dBBDu_193/L127) VH: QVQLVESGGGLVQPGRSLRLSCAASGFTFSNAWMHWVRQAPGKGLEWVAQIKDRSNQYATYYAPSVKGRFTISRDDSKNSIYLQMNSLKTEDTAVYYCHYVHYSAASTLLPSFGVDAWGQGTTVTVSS VL: DIVMTQSPLSLPVTPGEPASISCRASEELLHINRHIFLHWYQQKPGQAPRLLIYKVYNRFTGVPDRFSGSGSGTDFTLKISRVEAEDVGVYYCAQGTSVPFTFGQGTKLEIK :: 440
dBBDu_186 / dBBDu_L108 (antibody, human IgG1, V domains shown, Tested as IgG (human IgG1 constant region, kappa light chain); also called dBBDu186/L108) VH: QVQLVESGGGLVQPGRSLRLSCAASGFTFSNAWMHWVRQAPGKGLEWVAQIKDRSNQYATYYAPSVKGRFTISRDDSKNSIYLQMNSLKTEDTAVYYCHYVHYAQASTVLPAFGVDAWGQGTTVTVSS VL: DIVMTQSPLSLPVTPGEPASISCRTSEELLHINRFTFLHWYQQKPGQAPRLLIYKVSNRFMGVPDRFSGSGSGTDFTLKISRVEAEDVGVYYCAQGSAVPFTFGQGTKLEIK :: 335
dBBDu_186 / dBBDu_L100 (antibody, human IgG1, V domains shown, Tested as IgG (human IgG1 constant region, kappa light chain); also called dBBDu186/L100) VH: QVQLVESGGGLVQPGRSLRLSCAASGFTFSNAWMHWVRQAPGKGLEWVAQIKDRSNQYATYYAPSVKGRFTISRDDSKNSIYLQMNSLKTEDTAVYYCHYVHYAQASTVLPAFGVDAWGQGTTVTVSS VL: DIVMTQSPLSLPVTPGEPASISCSASEELVHINRYIFLHWYQQKPGQAPRLLIYKVYNRFMGVPDRFSGSGSGTDFTLKISRVEAEDVGVYYCGQGSSVPFTFGQGTKLEIK :: 391

Next item in the queue.
Value of measured kon for the entry dBBDu_167 / dBBDu.L094 (antibody, human IgG1, V domains shown, Tested as IgG (human IgG1 constant region, kappa light chain); also called dBBDu167/L094; dBBDu_167/L094) VH: QVQLVESGGGLVQPGRSLRLSCAASGFTFSNAWMHWVRQAPGKGLEWVAQIKDKGNLYAAYYAPSVKGRFTISRDDSKNSIYLQMNSLKTEDTAVYYCHYVHYASAGGGLPGFGVDAWGQGTTVTVSS VL: DIVMTQSPLSLPVTPGEPASISCYASEELLHINRHIYLHWYQQKPGQAPRLLIYKVYNRFNGVPDRFSGSGSGTDFTLKISRVEAEDVGVYYCAQGSSVPFTFGQGTKLEIK : 1210
